experimental.target: Cholinesterase (Homo sapiens)
Sequence (P06276 whole entry): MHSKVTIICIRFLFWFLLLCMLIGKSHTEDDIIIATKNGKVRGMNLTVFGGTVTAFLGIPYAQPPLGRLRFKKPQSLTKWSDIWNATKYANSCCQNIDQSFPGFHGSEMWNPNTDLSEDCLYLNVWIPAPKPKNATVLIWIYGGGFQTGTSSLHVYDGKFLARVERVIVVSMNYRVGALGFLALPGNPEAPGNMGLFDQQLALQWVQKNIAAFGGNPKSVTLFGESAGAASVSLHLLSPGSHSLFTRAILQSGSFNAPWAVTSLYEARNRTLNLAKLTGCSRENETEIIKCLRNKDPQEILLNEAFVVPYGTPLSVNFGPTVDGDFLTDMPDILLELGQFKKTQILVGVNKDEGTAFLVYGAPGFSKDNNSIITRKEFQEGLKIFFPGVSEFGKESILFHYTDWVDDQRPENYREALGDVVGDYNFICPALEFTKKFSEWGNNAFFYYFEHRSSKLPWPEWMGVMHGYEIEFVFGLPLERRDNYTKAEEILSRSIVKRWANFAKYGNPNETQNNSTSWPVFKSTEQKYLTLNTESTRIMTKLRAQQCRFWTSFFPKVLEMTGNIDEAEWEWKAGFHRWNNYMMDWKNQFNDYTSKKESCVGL
For each record, write down the corresponding IC50.
Provide the reading as a plain figure in µM.

Form field: reported IC50 of Nc1ccc(S(N)(=O)=O)cc1 [aromatic sulfonamide compound 5]
138

Follow-up entry: CC(C)Cc1ccc(C(C)C(=O)NS(=O)(=O)c2ccc(N)cc2)cc1 (stereo not drawn)
214

###

experimental.target: Acetylcholinesterase (Homo sapiens, UniProt P22303)
Sequence (P22303 whole entry): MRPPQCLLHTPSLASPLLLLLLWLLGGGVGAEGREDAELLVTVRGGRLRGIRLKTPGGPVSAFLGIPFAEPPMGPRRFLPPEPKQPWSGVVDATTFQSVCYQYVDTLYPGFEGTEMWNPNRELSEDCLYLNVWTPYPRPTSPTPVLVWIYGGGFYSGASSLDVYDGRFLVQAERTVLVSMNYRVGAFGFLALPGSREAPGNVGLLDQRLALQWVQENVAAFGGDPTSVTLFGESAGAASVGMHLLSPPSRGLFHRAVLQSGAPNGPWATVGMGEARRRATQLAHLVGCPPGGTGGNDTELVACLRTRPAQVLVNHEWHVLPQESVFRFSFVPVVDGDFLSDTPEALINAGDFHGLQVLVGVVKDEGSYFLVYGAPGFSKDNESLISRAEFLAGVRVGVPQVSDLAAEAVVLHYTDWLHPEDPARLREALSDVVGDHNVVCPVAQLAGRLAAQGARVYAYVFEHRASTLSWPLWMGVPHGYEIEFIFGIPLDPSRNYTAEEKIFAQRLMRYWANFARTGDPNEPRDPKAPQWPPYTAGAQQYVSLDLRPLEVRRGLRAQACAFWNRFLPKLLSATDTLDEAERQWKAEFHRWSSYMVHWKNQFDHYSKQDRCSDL
quantity: pIC50
To interpret pIC50, take it as minus log10 of a concentration measured in moles per litre.

Form field - read-out: pIC50; system: Acetylcholinesterase (Homo sapiens, UniProt P22303); submitted item: CC(C)Cc1ccc([C@H](C)C(=O)O)cc1 [(RS)-ibuprofen]
3.63
